Where do the numbers come from? From patent US11225505B2.

# System: Pseudomonas aeruginosa FADDI-PA01
# Format: cell-based
# condition.parameters: FADDI-
# Protocol: MICs of the lipopeptides (trifluoroacetic acid salt, TFA) were determined by broth microdilution in cation-adjusted Mueller-Hinton broth (CAMHB) (Oxoid Australia, Thebarton, SA, Australia) according to the Clinical and Laboratory Standards Institute protocol (Clinical and Laboratory Standards Institute, Performance standards for antimicrobial susceptibility testing; twentyforth informational supplement M100-S24. Wayne, Pa., 2014). Polymyxin B sulphate was employed as the control. […]
Where a SMILES comes first, the peptide text is derived from it. Bridges are numbered along the chain shown (N, C = ends). [ ]: non-standard residue; d: D form. The star is where a group is joined. Benzothiazole(2-CH2CH2CO) = O=C(CCc1nc2ccccc2s1)*; X41 = O=C(c1cc2cc(F)c(F)cc2[nH]1)*; X69 = Cn1c(C(=O)*)nc2ccccc21; X36 = O=C(c1ncc(Br)cc1Br)*; X13 = O=C(c1ccnc(Br)c1)*; X65 = O=C(c1cc(Br)ccn1)*; X7 = O=C(c1nc2ccccc2o1)*; Dab = NCC[C@H](N)C(=O)O; X68 = O=C(c1coc(Br)c1)*; Abu = CC[C@H](N)C(=O)O; Dap = NC[C@H](N)C(=O)O; X8 = O=C(c1ccnc(F)c1)*
observed.property: Minimum inhibitory concentration (µg/mL)
One number for each entry, in µg/mL.

Some molecules with known Minimum inhibitory concentration results, for comparison:
CC[C@@H]1NC(=O)[C@@H](CC(C)C)NC(=O)[C@H](CCN)NC(=O)[C@@H](NC(=O)[C@H](CN)NC(=O)[C@@H](NC(=O)[C@H](CCN)NC(=O)c2nc3ccccc3n2C)[C@@H](C)O)CCNC(=O)[C@H]([C@@H](C)O)NC(=O)[C@H](CCN)NC(=O)[C@H](CCN)NC1=O [Compound 57] (X69-[Dab]T[Dap][Dab][Dab][dL][Abu][Dab][Dab]T; lactam 4-C); 0.25
CC[C@@H]1NC(=O)[C@@H](CC(C)C)NC(=O)[C@H](CCN)NC(=O)[C@@H](NC(=O)[C@H](CN)NC(=O)[C@@H](NC(=O)[C@H](CCN)NC(=O)c2coc(Br)c2)[C@@H](C)O)CCNC(=O)[C@H]([C@@H](C)O)NC(=O)[C@H](CCN)NC(=O)[C@H](CCN)NC1=O [Compound 103] (X68-[Dab]T[Dap][Dab][Dab][dL][Abu][Dab][Dab]T; lactam 4-C); 0.5
CC[C@@H]1NC(=O)[C@@H](CC(C)C)NC(=O)[C@H](CCN)NC(=O)[C@@H](NC(=O)[C@H](CN)NC(=O)[C@@H](NC(=O)[C@H](CCN)NC(=O)c2nc3ccccc3o2)[C@@H](C)O)CCNC(=O)[C@H]([C@@H](C)O)NC(=O)[C@H](CCN)NC(=O)[C@H](CCN)NC1=O [Compound 74] (X7-[Dab]T[Dap][Dab][Dab][dL][Abu][Dab][Dab]T; lactam 4-C); 0.5
CC[C@@H]1NC(=O)[C@@H](CC(C)C)NC(=O)[C@H](CCN)NC(=O)[C@@H](NC(=O)[C@H](CN)NC(=O)[C@@H](NC(=O)[C@H](CCN)NC(=O)c2ccnc(Br)c2)[C@@H](C)O)CCNC(=O)[C@H]([C@@H](C)O)NC(=O)[C@H](CCN)NC(=O)[C@H](CCN)NC1=O [Compound 25] (X13-[Dab]T[Dap][Dab][Dab][dL][Abu][Dab][Dab]T; lactam 4-C); 0.25

Below is a list of molecules. For each, state its recorded Minimum inhibitory concentration.
1. CC[C@@H]1NC(=O)[C@@H](CC(C)C)NC(=O)[C@H](CCN)NC(=O)[C@@H](NC(=O)[C@H](CN)NC(=O)[C@@H](NC(=O)[C@H](CCN)NC(=O)CCc2nc3ccccc3s2)[C@@H](C)O)CCNC(=O)[C@H]([C@@H](C)O)NC(=O)[C@H](CCN)NC(=O)[C@H](CCN)NC1=O [Compound 72] ({Benzothiazole(2-CH2CH2CO)}-[Dab]T[Dap][Dab][Dab][dL][Abu][Dab][Dab]T; lactam 4-C)
2. CC[C@@H]1NC(=O)[C@@H](CC(C)C)NC(=O)[C@H](CCN)NC(=O)[C@@H](NC(=O)[C@H](CN)NC(=O)[C@@H](NC(=O)[C@H](CCN)NC(=O)c2cc(Br)ccn2)[C@@H](C)O)CCNC(=O)[C@H]([C@@H](C)O)NC(=O)[C@H](CCN)NC(=O)[C@H](CCN)NC1=O [Compound 102] (X65-[Dab]T[Dap][Dab][Dab][dL][Abu][Dab][Dab]T; lactam 4-C)
3. CC[C@@H]1NC(=O)[C@@H](CC(C)C)NC(=O)[C@H](CCN)NC(=O)[C@@H](NC(=O)[C@H](CN)NC(=O)[C@@H](NC(=O)[C@H](CCN)NC(=O)c2cc3cc(F)c(F)cc3[nH]2)[C@@H](C)O)CCNC(=O)[C@H]([C@@H](C)O)NC(=O)[C@H](CCN)NC(=O)[C@H](CCN)NC1=O [Compound 60] (X41-[Dab]T[Dap][Dab][Dab][dL][Abu][Dab][Dab]T; lactam 4-C)
4. CC[C@@H]1NC(=O)[C@@H](CC(C)C)NC(=O)[C@H](CCN)NC(=O)[C@@H](NC(=O)[C@H](CN)NC(=O)[C@@H](NC(=O)[C@H](CCN)NC(=O)c2ccnc(F)c2)[C@@H](C)O)CCNC(=O)[C@H]([C@@H](C)O)NC(=O)[C@H](CCN)NC(=O)[C@H](CCN)NC1=O [Compound 31] (X8-[Dab]T[Dap][Dab][Dab][dL][Abu][Dab][Dab]T; lactam 4-C)
5. CC[C@@H]1NC(=O)[C@@H](CC(C)C)NC(=O)[C@H](CCN)NC(=O)[C@@H](NC(=O)[C@H](CN)NC(=O)[C@@H](NC(=O)[C@H](CCN)NC(=O)c2ncc(Br)cc2Br)[C@@H](C)O)CCNC(=O)[C@H]([C@@H](C)O)NC(=O)[C@H](CCN)NC(=O)[C@H](CCN)NC1=O [Compound 22] (X36-[Dab]T[Dap][Dab][Dab][dL][Abu][Dab][Dab]T; lactam 4-C)

1. 0.5
2. 0.5
3. 0.5
4. 0.25
5. 0.25
